target: His-PDK1 (Homo sapiens); construct: made in house; host or cells: Sf21 insect cells (baculovirus, pFASTBAC HTb); experiment: Surface Plasmon Resonance (BiaCore) binding of His-PDK1 to GST-PIF / Region B peptide; conditions: immobilised and biotinylated 24 residue peptide, His-PDK1 injected; read-out: Kd
Sequence (O15530 whole entry): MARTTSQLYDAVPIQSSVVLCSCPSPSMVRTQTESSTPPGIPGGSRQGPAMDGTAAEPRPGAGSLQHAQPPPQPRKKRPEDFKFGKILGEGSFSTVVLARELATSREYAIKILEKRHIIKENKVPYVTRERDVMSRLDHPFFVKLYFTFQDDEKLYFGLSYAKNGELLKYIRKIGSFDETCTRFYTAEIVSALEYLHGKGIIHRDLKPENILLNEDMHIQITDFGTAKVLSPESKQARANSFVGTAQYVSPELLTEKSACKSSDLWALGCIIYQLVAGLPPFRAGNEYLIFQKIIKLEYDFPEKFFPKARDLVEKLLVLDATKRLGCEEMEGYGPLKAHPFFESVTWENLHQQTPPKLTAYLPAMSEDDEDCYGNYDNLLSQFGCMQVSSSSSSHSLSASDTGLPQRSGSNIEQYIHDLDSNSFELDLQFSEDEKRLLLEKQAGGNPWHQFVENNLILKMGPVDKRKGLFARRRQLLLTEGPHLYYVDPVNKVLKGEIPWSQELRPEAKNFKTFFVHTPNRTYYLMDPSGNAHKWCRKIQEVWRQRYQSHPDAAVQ
Ends that are not written are not given here.
Measurement Label: pKd
Expect pKd as a plain number equal to -log10 of the molar concentration.

Report pKd for REPRILSEEEQEMFRDFDYIADWC [Region B peptide] please.
6.10

Reference source: patent US20070196883A1
